Consider the following compounds; for each one, report its pIC50.
# ASSAY_SYSTEM: human TRPM8 (Homo sapiens)
# Sequence (Q7Z2W7 whole entry): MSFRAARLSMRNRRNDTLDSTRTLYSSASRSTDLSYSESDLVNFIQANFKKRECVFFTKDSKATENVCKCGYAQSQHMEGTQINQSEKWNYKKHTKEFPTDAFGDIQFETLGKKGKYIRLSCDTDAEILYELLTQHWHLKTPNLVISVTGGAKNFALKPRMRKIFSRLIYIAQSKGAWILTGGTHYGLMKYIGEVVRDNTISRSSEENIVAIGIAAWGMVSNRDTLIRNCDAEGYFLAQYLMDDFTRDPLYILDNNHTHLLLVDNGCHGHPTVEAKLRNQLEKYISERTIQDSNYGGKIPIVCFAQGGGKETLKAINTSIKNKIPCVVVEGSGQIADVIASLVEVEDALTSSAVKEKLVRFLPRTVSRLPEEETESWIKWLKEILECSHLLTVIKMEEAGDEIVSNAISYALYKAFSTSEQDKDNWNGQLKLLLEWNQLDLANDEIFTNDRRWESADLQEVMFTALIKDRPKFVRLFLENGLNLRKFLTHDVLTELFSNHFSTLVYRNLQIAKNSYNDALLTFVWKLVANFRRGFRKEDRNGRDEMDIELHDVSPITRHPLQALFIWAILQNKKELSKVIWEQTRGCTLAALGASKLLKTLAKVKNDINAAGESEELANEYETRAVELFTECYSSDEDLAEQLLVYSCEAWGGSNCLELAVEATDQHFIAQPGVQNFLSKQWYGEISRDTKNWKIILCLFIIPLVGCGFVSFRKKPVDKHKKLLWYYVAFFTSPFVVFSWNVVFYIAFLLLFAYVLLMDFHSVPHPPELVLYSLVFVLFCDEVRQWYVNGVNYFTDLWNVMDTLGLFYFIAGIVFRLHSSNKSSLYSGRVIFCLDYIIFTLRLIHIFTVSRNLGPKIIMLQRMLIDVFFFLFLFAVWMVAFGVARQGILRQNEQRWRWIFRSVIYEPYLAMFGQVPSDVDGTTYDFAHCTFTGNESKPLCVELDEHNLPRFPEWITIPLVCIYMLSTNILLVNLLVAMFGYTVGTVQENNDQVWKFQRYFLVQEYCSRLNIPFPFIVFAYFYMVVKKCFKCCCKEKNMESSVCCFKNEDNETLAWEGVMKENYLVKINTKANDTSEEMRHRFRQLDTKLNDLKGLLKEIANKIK
# TEST_NAME: Menthol-induced Ca2+ influx in HEK293 cells stably expressing human TRPM8
# CONDITION_PARAMETERS: 30 microM menthol-induced Ca2+ influx, read-out: IC50 against TRPM8
pIC50: −log10 of the molar value.

Name the reported pIC50 value associated with the compound COc1nc2ccc(C)nc2n1-c1ccc(C(=O)CN2C(=O)NC3(CCC(F)(F)CC3)C2=O)cc1
> 8.00

Item: O=C(CN1C(=O)NC2(CCC(F)(F)CC2)C1=O)c1ccc(-c2nccc3cn[nH]c23)cc1
> 6.30

Item: O=C(CN1C(=O)NC2(CCC(F)(F)CC2)C1=O)c1ccc(-c2nccc3ccccc23)cc1
> 7.00

Item: O=C(CN1C(=O)NC2(CCC(F)(F)CC2)C1=O)c1ccc(N2CCOc3ccccc32)nc1
> 7.00

Item: Cc1cc(C(=O)CN2C(=O)NC3(CCC(F)(F)CC3)C2=O)c(C)n1-c1ccccc1
> 7.00

Item: Cc1ccccc1-c1ccc(C(=O)CN2C(=O)NC3(CCC(F)(F)CC3)C2=O)n1C
> 6.30

Item: N#Cc1cccc(-c2ccc(C(=O)CN3C(=O)NC4(CCC(F)(F)CC4)C3=O)cc2Cl)c1
> 6.30

* * *

# ASSAY_SYSTEM: UniProtKB Q7Z2W7
# TEST_NAME: Menthol-induced Ca2+ influx in HEK293 cells stably expressing human TRPM8
# CONDITION_PARAMETERS: 30 microM menthol-induced Ca2+ influx, read-out: IC50 against TRPM8
pIC50: −log10 of the molar value.
Consider the following molecules; for each one, report its pIC50.

Name the reported pIC50 value associated with the molecule O=C(CN1C(=O)NC2(CCC(F)(F)CC2)C1=O)c1ccc(-n2c(C(F)(F)F)nc3cccnc32)cc1
> 7.00

Item: Cc1nc(C(=O)CN2C(=O)NC3(CCCCC3)C2=O)c(C)n1-c1ccccc1
> 7.00

Item: Cc1cc2ccccc2n1-c1ccc(C(=O)CN2C(=O)NC3(CCC(F)(F)CC3)C2=O)cc1
> 6.30

Item: Cc1cc(C(=O)CN2C(=O)NC3(CCC(F)(F)CC3)C2=O)n(C)c1-c1cncc(F)c1
> 7.00

Item: Cc1cnc(C)c(-c2ccc(C(=O)CN3C(=O)NC4(CCC(F)(F)CC4)C3=O)cc2)n1
> 8.00

Item: Cc1cc(C(=O)CN2C(=O)NC3(CCC(F)(F)CC3)C2=O)sc1-c1cccnc1CO
> 6.30

Item: Cc1cc(C(=O)CN2C(=O)NC3(CCCCC3)C2=O)sc1-c1ccccc1CO
> 7.00

Item: O=C(CN1C(=O)NC2(CCC(F)(F)CC2)C1=O)c1ccc(-c2cccc3cccnc23)cc1
> 7.00

* * *

# ASSAY_SYSTEM: human TRPM8 (Homo sapiens)
# TEST_NAME: Menthol-induced Ca2+ influx in HEK293 cells stably expressing human TRPM8
# CONDITION_PARAMETERS: 30 microM menthol-induced Ca2+ influx, read-out: IC50 against TRPM8
pIC50: −log10 of the molar value.
VALUE_KIND: pIC50

Write down the reported pIC50 of Cc1cc(C(=O)CN2C(=O)NC3(CCC(F)(F)CC3)C2=O)ccc1-c1ccccc1C#N , test system: human TRPM8 (Homo sapiens).
> 7.00

Item: Cc1ccnnc1-c1ccc(C(=O)CN2C(=O)NC3(CCCCCC3)C2=O)cc1
> 7.00

Item: O=C1CCc2c(cccc2-c2ccc(C(=O)CN3C(=O)NC4(CCC(F)(F)CC4)C3=O)cc2)N1
> 6.30

Item: O=C(CN1C(=O)NC2(CCC(F)(F)CC2)C1=O)c1ccc(-c2ncnc3ccccc23)cc1
> 8.00

Item: N#Cc1cccc(-c2ccc(C(=O)CN3C(=O)NC4(CCC(F)(F)CC4)C3=O)cc2)n1
> 7.00

Item: Cc1ccnnc1Oc1ccc(C(=O)CN2C(=O)NC3(CCC(F)(F)CC3)C2=O)cc1
> 6.30

Item: Cc1nc2c(-c3ccc(C(=O)CN4C(=O)NC5(CCC(F)(F)CC5)C4=O)cc3)cccc2[nH]1
> 6.30

Item: Cn1c(-c2cccc(F)c2)cnc1C(=O)CN1C(=O)NC2(CCC(F)(F)CC2)C1=O
> 7.00

Item: Cn1c(-c2cccc(C#N)c2)cnc1C(=O)CN1C(=O)NC2(CCC(F)(F)CC2)C1=O
> 7.00

Item: O=C(CN1C(=O)NC2(CCC(F)(F)CC2)C1=O)c1ccc(-c2ncnc3ncccc23)cc1
> 6.30

Item: O=C(CN1C(=O)NC2(CCC(F)(F)CC2)C1=O)c1ccc(Sc2ncccn2)cc1
> 7.00

Item: Cc1nc(C(=O)CN2C(=O)NC3(CCC(F)(F)CC3)C2=O)c(C)n1-c1ccccc1
> 7.00

Item: O=C(CN1C(=O)NC2(CCC(F)(F)CC2)C1=O)c1ccc(-c2nccc3occc23)cc1
> 7.00

Item: O=C(CN1C(=O)NC2(CCC(F)(F)CC2)C1=O)c1ccc(-c2cncc3[nH]ncc23)nc1
> 6.30

Item: Cc1cc(-n2c(C)cc(C(=O)CN3C(=O)OC4(CCC(F)(F)CC4)C3=O)c2C)no1
> 7.00

Item: Cn1c(C(=O)CN2C(=O)NC3(CCC(F)(F)CC3)C2=O)nc(C2CC2)c1-c1cccnc1
> 7.00
